Source listed as patent US20030186281A1.

Items are presented alongside their recorded β-Galactosidase Activity, Cultured With ATC.
System: tet operator sequence
Assay: β-galactosidase activity of a tetracycline-regulated promoter in transformed E. coli with revTetR, in the presence and absence of anhydrotetracycline (atc)
Type: cell-based, Escherichia coli
Conditions: RevTetR isolate cultured in the presence of anhydrotetracycline (ATC)
Experimental: The relative activity of revTetR repressors was determined at 28° C. and 37° C. for each clone by measuring β-galactosidase activity of a tetracycline-regulated promoter in transformed Escherichia coli in the presence and absence of the tetracycline analog, anhydrotetracycline (atc). The relative β-galactosidase activity was measured in standard Miller units and is presented as the percent of maximal expression as measured in the absence of Tet repressor. […]
reported.endpoint: β-Galactosidase Activity, Cultured With ATC

molecule: TetRrev6-31: revTetR(BD) G96Q G102S (protein, Modified tetracycline repressor, revTetR(BD) G96Q G102S) MSRLDKSKVINSALELLNEVGIEGLTTRKLAQKLGVEQPTLYWHVKNKRALLDALAVEILARHHDYSLPAAGESWQSFLRNNAMSFRRALLRYRDQAKVHLSTRPDEKQYDTVETQLRFMTENGFSLRDGLYAISAVSHFTLGAVLEQQEHTAALTDRPAAPDENLPPLLREALQIMDSDDGEQAFLHGLESLIRGFEVQLTALLQIV
assay.value: 35.26
//
molecule: TetRrevAtc4-40: revTetR(BD) A56P L60L A61G R62R (protein, Modified tetracycline repressor, revTetR(BD) A56P L60L A61G R62R) MSRLDKSKVINSALELLNEVGIEGLTTRKLAQKLGVEQPTLYWHVKNKRALLDALPVEILGRHHDYSLPAAGESWQSFLRNNAMSFRRALLRYRDGAKVHLGTRPDEKQYDTVETQLRFMTENGFSLRDGLYAISAVSHFTLGAVLEQQEHTAALTDRPAAPDENLPPLLREALQIMDSDDGEQAFLHGLESLIRGFEVQLTALLQIV
assay.value: 14.428
//
molecule: TetRrev04-1: revTetR(BD) G96E K98T (protein, Modified tetracycline repressor, revTetR(BD) G96E K98T) MSRLDKSKVINSALELLNEVGIEGLTTRKLAQKLGVEQPTLYWHVKNKRALLDALAVEILARHHDYSLPAAGESWQSFLRNNAMSFRRALLRYRDEATVHLGTRPDEKQYDTVETQLRFMTENGFSLRDGLYAISAVSHFTLGAVLEQQEHTAALTDRPAAPDENLPPLLREALQIMDSDDGEQAFLHGLESLIRGFEVQLTALLQIV
assay.value: 44.145
//
molecule: TetRrevAtc4-13: revTetR(BD) E58N I59T L60F H63Y (protein, Modified tetracycline repressor, revTetR(BD) E58N I59T L60F H63Y) MSRLDKSKVINSALELLNEVGIEGLTTRKLAQKLGVEQPTLYWHVKNKRALLDALAVNTFARYHDYSLPAAGESWQSFLRNNAMSFRRALLRYRDGAKVHLGTRPDEKQYDTVETQLRFMTENGFSLRDGLYAISAVSHFTLGAVLEQQEHTAALTDRPAAPDENLPPLLREALQIMDSDDGEQAFLHGLESLIRGFEVQLTALLQIV
assay.value: 8.1397
//
molecule: TetRrevAF7/2: revTetR(BD) L14V E15V E23D K48K G96L G102A (protein, Modified tetracycline repressor, revTetR(BD) L14V E15V E23D K48K G96L G102A) MSRLDKSKVINSAVVLLNEVGIDGLTTRKLAQKLGVEQPTLYWHVKNKRALLDALAVEILARHHDYSLPAAGESWQSFLRNNAMSFRRALLRYRDLAKVHLATRPDEKQYDTVETQLRFMTENGFSLRDGLYAISAVSHFTLGAVLEQQEHTAALTDRPAAPDENLPPLLREALQIMDSDDGEQAFLHGLESLIRGFEVQLTALLQIV
assay.value: 3.7321
